- STUDY SYSTEM: Aryl hydrocarbon receptor (Homo sapiens) (UniProt P35869)
- Sequence (P35869 whole entry, looked up): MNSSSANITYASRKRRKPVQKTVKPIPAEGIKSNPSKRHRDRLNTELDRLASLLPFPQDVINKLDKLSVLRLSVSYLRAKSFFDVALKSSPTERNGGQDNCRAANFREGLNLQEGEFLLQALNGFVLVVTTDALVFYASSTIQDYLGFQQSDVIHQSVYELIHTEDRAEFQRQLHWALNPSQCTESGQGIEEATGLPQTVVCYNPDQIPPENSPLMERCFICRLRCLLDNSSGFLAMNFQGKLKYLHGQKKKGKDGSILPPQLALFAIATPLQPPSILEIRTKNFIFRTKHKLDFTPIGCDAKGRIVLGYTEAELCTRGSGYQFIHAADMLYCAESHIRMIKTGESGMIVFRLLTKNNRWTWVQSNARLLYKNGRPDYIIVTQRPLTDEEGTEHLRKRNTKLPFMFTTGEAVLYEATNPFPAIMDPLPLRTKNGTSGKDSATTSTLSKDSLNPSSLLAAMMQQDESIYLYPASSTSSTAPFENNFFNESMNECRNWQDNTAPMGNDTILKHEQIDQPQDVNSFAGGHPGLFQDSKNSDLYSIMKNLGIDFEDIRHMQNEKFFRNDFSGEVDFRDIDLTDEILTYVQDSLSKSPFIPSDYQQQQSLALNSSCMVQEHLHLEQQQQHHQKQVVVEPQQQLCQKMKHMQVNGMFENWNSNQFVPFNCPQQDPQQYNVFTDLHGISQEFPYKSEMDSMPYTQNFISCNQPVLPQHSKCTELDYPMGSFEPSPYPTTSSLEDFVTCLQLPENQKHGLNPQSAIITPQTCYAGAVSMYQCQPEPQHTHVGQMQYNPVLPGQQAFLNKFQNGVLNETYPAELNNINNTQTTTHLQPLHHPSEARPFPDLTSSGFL
- PROTOCOL DESCRIPTION: qHTS assay to identify small molecule that activate the aryl hydrocarbon receptor (AhR) signaling pathway (AID 743085);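 further: HG2L7.5c1 human HepG2 liver cells with stably integrated DRE-driven firefly reporter; nearly all actives have a fitted effect of over 15% in size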
- EXPERIMENTAL SETUP: HepG2 AhR-luc (HG2L7.5c1), luciferase, 24 h; series mostly up to 70.3 µM
Results filed as inconclusive are left out. Active and inactive are the calls of the source. The call rests on the fitted dose curve; in most records, active means well fitted activation curve with a large enough effect in the repeat runs; inconclusive means weak or mixed curves; inactive means no such curve, though single readings can be large or run the other way.
Please answer using one outcome listed in active, inactive

[[record]]
molecule = "Sc1ccccc1"
label_class = "inactive"


## Input Hello, I am checking results. What call was entered for COc1nc(NC(C)C)nc(NC(C)C)n1 ?
## Output inactive

## Input Hello, I am checking results. What call was entered for Cc1ccc(O)c(C)c1 ?
## Output inactive

## Input Hello, I am checking results. What call was entered for CC[N+](=O)[O-] ?
## Output inactive

## Input Hello, I am checking results. What call was entered for N#Cc1cccc(C#N)c1 ?
## Output inactive

## Input Hello, I am checking results. What call was entered for Nc1ncc([N+](=O)[O-])s1 ?
## Output inactive

* * *

- PROTOCOL DESCRIPTION: qHTS assay to identify small molecule agonists of H2AX (AID 1224845)
- EXPERIMENTAL SETUP: CHO-K1 phospho-H2AX Ser139 HTRF, 3 h; series mostly up to 154 µM
Inconclusive results are not listed. Activity calls are given as the source filed them. The call rests on the fitted dose curve; in most records, active means well fitted activation curve with a large enough effect in the signal ratio in the repeat runs (not every such curve was filed as active); inconclusive means weak or mixed curves; inactive means flat fitted curve, though single readings scatter; the % refers to the signal ratio.
READOUT NAME: outcome

Below: 5 molecules and their reported outcome.
[[record]]
molecule = "CNC(=O)O/N=C/C(C)(C)S(C)=O (stereo not given)"
endpoint_result = "inactive"

[[record]]
molecule = "Nc1ncc([N+](=O)[O-])s1"
endpoint_result = "inactive"

[[record]]
molecule = "Clc1cnc(Oc2ccc(Oc3ncc(Cl)cc3Cl)cc2)c(Cl)c1"
endpoint_result = "inactive"

[[record]]
molecule = "CCSC(=O)N1CCCCCC1"
endpoint_result = "inactive"

[[record]]
molecule = "CCOc1ccc(N)cc1"
endpoint_result = "inactive"


## Input Please look up its outcome: C=C(C)C(=O)OCC(CC)CCCC (stereo not given)
## Output inactive

## Input Please look up its outcome: N#Cc1cccc(C#N)c1
## Output inactive

## Input Please look up its outcome: ClCCOCCCl
## Output inactive

## Input Please look up its outcome: O=C(O)COc1ccccc1
## Output inactive

* * *

- STUDY SYSTEM: Nuclear receptor subfamily 1 group I member 2 (Homo sapiens) (UniProt O75469)
- Sequence (O75469 whole entry, looked up): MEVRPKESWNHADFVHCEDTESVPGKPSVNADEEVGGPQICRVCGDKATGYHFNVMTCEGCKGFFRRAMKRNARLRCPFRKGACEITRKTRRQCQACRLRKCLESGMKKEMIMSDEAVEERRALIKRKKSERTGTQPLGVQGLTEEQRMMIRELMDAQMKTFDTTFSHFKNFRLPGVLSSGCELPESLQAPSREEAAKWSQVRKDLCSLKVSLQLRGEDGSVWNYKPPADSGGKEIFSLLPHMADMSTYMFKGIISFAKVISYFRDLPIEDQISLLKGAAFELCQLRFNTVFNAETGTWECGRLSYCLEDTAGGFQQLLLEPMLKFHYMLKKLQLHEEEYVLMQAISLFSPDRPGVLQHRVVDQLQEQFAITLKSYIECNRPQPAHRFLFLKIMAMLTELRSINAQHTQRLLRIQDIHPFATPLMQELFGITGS
- PROTOCOL DESCRIPTION: Human pregnane X receptor (PXR) small molecule agonists, qHTS assay (AID 1346982); further: nearly all actives have a fitted effect of over 35% in size
- EXPERIMENTAL SETUP: PXR-Luc HepG2, CYP3A4 luciferase reporter, 24 h; series mostly up to 92.4 µM
Records with an inconclusive call do not appear. The source made the active and inactive calls. The call rests on the fitted dose curve; in most records, active means well fitted activation curve with a large enough effect in the repeat runs; inconclusive means weak or mixed curves; inactive means no such curve, though single readings can be large or run the other way.
Please answer using one outcome listed in active, inactive

Examples from the recorded data:
[[record]]
molecule = "Sc1ccccc1"
label_class = "inactive"

[[record]]
molecule = "Cc1cc(O)ccc1Cl"
label_class = "inactive"

[[record]]
molecule = "COS(=O)(=O)OC"
label_class = "inactive"

[[record]]
molecule = "C[C@H]1C(=O)O[C@@H]2CCN3CC=C(COC(=O)[C@](C)(O)[C@]1(C)O)[C@H]23"
label_class = "inactive"

[[record]]
molecule = "C/C=C/c1ccc2c(c1)OCO2"
label_class = "inactive"

[[record]]
molecule = "FC(F)(F)c1ccc(Cl)cc1"
label_class = "inactive"

[[record]]
molecule = "ClCCOCCCl"
label_class = "inactive"

[[record]]
molecule = "O=C(O)C(Br)Br"
label_class = "inactive"


## Input Hello, I am checking results. What call was entered for CC(=O)/C=C/c1ccccc1 ?
## Output inactive

## Input Hello, I am checking results. What call was entered for CN(C)NC(=O)CCC(=O)O ?
## Output inactive

## Input Hello, I am checking results. What call was entered for CCOC(=O)CC(SP(=O)(OC)OC)C(=O)OCC (configuration not stated) ?
## Output inactive
